pIC50: −log10 of the molar value.
Recorded pIC50 values (Human Factor XIIa (Homo sapiens (Human))) are given below.
Measured Parameter: pIC50

>>> df
                                   compound  measured_parameter  value_reported
0  COc1cccc(CNC(=O)c2cn(Cc3ccc(Cn4ccccc4=O)cc3)nc2N)c1F [Reference Example B, reference compound]               pIC50          < 4.40
1  COCc1nn(Cc2ccc(Cn3ccccc3=O)cc2)cc1C(=O)NCc1cc(OC)n(C)n1               pIC50          < 4.40
2  COCc1nn(Cc2ccc(Cn3ccccc3=O)cc2)cc1C(=O)NCc1c(Cl)cccc1-n1cnnn1               pIC50          < 5.40
3  COCc1nn(Cc2ccc(Cn3ccccc3=O)cc2)cc1C(=O)NCc1ncc(Cl)cc1C#N               pIC50          < 4.40

###

Recorded Cmax by entry
experiment: Pharmacokinetics following a single oral dose in male Sprague-Dawley rats; format: in vivo; settings: rat, single po dose (nominal 10 mg/kg; actual dose per row in column Dose po), 10% DMSO/10% cremophor/80% SWFI, plasma
Measured Parameter: Cmax (ng/mL)

>>> print(df.to_string())
                                  structure  value_reported
0  COCc1nn(Cc2ccc(Cn3ccccc3=O)cc2)cc1C(=O)NCc1nccc(OC)c1C            1020
1  COCc1nn(Cc2ccc(N3CCCC3)nc2)cc1C(=O)NCc1c(-n2cnnn2)ccc(OC)c1F             845
2  COc1ccnc(CNC(=O)c2cn(Cc3ccc(Cn4ccccc4=O)cc3)nc2C(F)(F)F)c1F            1800
3  COCc1nn(Cc2cnc(N3CCCC3)nc2)cc1C(=O)NCc1c(-n2cnnn2)ccc(OC)c1F             807

###

target: thrombin (Homo sapiens (Human), UniProt P00734)
pIC50: −log10 of the molar value.
Measured Parameter: pIC50

In [3]: df
Out[3]:
                                  structure  measured_parameter  result_operator  value_reported
0  COCc1nn(Cc2ccc(Cn3ccccc3=O)cc2)cc1C(=O)NCc1cc(OC)ccc1-n1cnnn1               pIC50                <            4.40
1  COc1ccc(F)c(CNC(=O)c2cn(Cc3ccc(Cn4ccccc4=O)cc3)nc2N)c1F               pIC50                <            4.40
2  COc1ccnc(CNC(=O)c2cn(Cc3ccc(Cn4ccccc4=O)cc3)nc2C(F)(F)F)c1F               pIC50                <            4.40
3  COCc1nn(Cc2cnc(N3CCCC3)nc2)cc1C(=O)NCc1c(-n2cnnn2)ccc(OC)c1F               pIC50                =            5.14
4  COCc1nn(Cc2ccc(Cn3ccccc3=O)cc2)cc1C(=O)NCc1cc(Cl)ccc1-n1cnnn1               pIC50                =            4.41
5  COCc1nn(Cc2ccc(Cn3ccccc3=O)cc2)cc1C(=O)NCc1cc(OC)ccc1C#N               pIC50                <            4.40
6  COCc1nn(Cc2ccc(Cn3ccccc3=O)cc2)cc1C(=O)NCc1c(-n2cnnn2)ccc(OC)c1F               pIC50                =            4.71
